measure_name: Ki

Req: Give CDK2 (Homo sapiens) Ki for OC[C@@H]1CCCN1Cc1onc(-c2ccc(F)cc2)c1-c1ccnc(NC2CCCCC2)n1 [V-05-014]
Resp: > 1000 nM

----------
- target_of_assay: UniProt:P49841
- Sequence (P49841 whole entry, species assumed): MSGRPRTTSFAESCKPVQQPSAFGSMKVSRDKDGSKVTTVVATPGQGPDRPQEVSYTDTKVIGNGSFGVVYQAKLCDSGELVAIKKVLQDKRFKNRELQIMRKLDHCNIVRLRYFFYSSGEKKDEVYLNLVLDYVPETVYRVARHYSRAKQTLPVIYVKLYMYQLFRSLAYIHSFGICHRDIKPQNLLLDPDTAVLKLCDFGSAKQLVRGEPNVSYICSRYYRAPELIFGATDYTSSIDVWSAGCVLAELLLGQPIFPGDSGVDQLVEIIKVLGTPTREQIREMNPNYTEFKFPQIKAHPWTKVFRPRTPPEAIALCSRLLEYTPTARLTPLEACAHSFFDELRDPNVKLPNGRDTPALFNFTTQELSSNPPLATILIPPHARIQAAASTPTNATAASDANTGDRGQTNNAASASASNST
- assay_procedure: spectrophotometric coupled-enzyme kinase inhibition assay
- Type: biochemical
- experimental_context: read-out: GSK3β Ki
measure_name: pKi
Remember the convention: pKi equals -log10 of concentration in molar.

Req: Value lookup for pKi; key = OC1CCN(Cc2onc(-c3ccc(F)cc3)c2-c2ccnc(NC3CCCCC3)n2)CC1 [V-05-013]
Resp: 6.14

----------
- target_of_assay: AKT3 (Homo sapiens)
- Sequence (Q9Y243 whole entry, species assumed): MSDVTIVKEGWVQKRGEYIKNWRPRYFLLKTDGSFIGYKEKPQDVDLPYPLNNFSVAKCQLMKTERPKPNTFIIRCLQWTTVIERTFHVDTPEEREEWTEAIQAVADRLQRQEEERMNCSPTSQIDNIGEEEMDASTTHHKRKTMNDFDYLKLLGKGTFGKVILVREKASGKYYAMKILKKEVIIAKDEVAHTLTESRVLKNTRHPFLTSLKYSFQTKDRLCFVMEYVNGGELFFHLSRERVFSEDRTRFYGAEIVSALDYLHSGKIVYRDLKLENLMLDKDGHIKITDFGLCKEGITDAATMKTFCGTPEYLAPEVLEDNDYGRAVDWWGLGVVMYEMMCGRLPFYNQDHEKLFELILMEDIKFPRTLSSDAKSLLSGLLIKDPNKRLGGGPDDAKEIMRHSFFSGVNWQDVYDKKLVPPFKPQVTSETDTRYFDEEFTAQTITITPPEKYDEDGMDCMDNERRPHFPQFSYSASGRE
measure_name: Ki

Req: Give AKT3 (Homo sapiens) Ki for OC1CCN(Cc2onc(-c3ccc(F)cc3)c2-c2ccnc(NC3CCCCC3)n2)CC1
Resp: > 1000 nM

Req: Give AKT3 (Homo sapiens) Ki for Fc1ccc(-c2noc(CN3CCCCC3)c2-c2ccnc(NC3CCCCC3)n2)cc1
Resp: > 1000 nM

Req: Give AKT3 (Homo sapiens) Ki for OC[C@@H]1CCCN1Cc1onc(-c2ccc(F)cc2)c1-c1ccnc(NC2CCCCC2)n1
Resp: > 1000 nM

----------
- target_of_assay: UniProtKB O14733
- Sequence (O14733 whole entry, species assumed): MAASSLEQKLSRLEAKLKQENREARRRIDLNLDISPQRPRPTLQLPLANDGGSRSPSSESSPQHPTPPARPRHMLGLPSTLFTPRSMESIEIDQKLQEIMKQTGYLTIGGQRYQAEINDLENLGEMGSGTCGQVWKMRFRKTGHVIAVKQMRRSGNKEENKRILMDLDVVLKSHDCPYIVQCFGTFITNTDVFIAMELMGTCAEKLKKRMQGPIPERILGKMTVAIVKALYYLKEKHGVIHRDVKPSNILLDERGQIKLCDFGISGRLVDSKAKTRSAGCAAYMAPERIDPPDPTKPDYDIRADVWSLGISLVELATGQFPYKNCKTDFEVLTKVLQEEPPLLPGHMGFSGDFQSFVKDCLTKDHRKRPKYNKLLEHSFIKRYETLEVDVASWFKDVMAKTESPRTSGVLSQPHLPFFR
measure_name: Ki

Req: Value lookup for Ki; key = Fc1ccc(-c2noc(CN3CCCCC3)c2-c2ccnc(NC3CCCCC3)n2)cc1
Resp: > 1000 nM

Req: Value lookup for Ki; key = OC1CCN(Cc2onc(-c3ccc(F)cc3)c2-c2ccnc(NC3CCCCC3)n2)CC1
Resp: > 1000 nM

----------
Please go through the items and note down their Ki.

Req: Give PIM1 (Homo sapiens, UniProt P11309) Ki for Fc1ccc(-c2noc(CN3CCCCC3)c2-c2ccnc(NC3CCCCC3)n2)cc1
Resp: > 1000 nM

Req: Give PIM1 (Homo sapiens, UniProt P11309) Ki for OC[C@@H]1CCCN1Cc1onc(-c2ccc(F)cc2)c1-c1ccnc(NC2CCCCC2)n1
Resp: > 1000 nM

Req: Give PIM1 (Homo sapiens, UniProt P11309) Ki for OC1CCN(Cc2onc(-c3ccc(F)cc3)c2-c2ccnc(NC3CCCCC3)n2)CC1
Resp: > 1000 nM
